Recorded values, source patent US9994571B2.

# Target entity: μ-opioid receptor (Homo sapiens (Human), UniProt P35372)
# Test name: μ-opioid receptor [35S]GTPγS functional assay
# Format: biochemical
Provide the reported EC50 of each item.
// return numeric value only (unit: nM, not printed)

Per the record, CN1CC[C@]23C[C@]4(CC[C@@]2(O)[C@H]1[C@H](O)c1ccc(O)cc13)NC(=O)NC4=O [Compound 17] has EC50 of 116

Per the record, O=C1NC(=O)[C@@]2(CC[C@@]3(O)[C@H]4C(=O)c5ccc(O)cc5[C@@]3(CCN4CC3CC3)C2)N1 [Compound 13] has EC50 of 37.5

====

Provide the reported Ki of each item.
# Target entity: μ-opioid receptor (Homo sapiens (Human), UniProt P35372)
# Test name: μ-opioid receptor radioligand dose-displacement binding assay ([3H]-diprenorphine)
# Condition info: binding assays using HEK-293 cells; read-out: Opioid Receptor Ki (nM) μ
// return numeric value only (unit: nM, not printed)

Response field Ki (μ-opioid receptor (Homo sapiens (Human), UniProt P35372)) for item O=C1NC(=O)[C@@]2(CC[C@@]3(O)[C@H]4C(=O)c5ccc(O)c6c5[C@@]3(CCN4CC3CC3)[C@H]2O6)N1 : 15400

Response field Ki (μ-opioid receptor (Homo sapiens (Human), UniProt P35372)) for item COc1ccc2c(c1)[C@]13CCN(C)[C@H]([C@@H]2O)[C@]1(O)CC[C@@]1(C3)NC(=O)NC1=O : 12600

Response field Ki (μ-opioid receptor (Homo sapiens (Human), UniProt P35372)) for item O=C1NC(=O)[C@@]2(CC[C@@]3(O)[C@H]4C(=O)c5ccc(O)cc5[C@@]3(CCN4CC3CC3)C2)N1 : 472

Response field Ki (μ-opioid receptor (Homo sapiens (Human), UniProt P35372)) for item O=C1NC(=O)[C@@]2(CC[C@@]3(O)[C@H]4[C@H](O)c5ccc(O)cc5[C@@]3(CCN4CC3CC3)C2)N1 : 1020

====

# Target entity: κ opioid receptor (Homo sapiens (Human), UniProt P41145)
# Test name: κ-opioid receptor radioligand dose-displacement binding assay ([3H]-U69,593)
# Condition info: binding assays using HEK-293 cells; read-out: Opioid Receptor Ki (nM) κ
Ki vs 80 nM: less than gives Satisfied; not less than gives Not satisfied.

Does COc1ccc2c(c1)[C@]13CCN(CC4CC4)[C@H](C2=O)[C@]1(O)CC[C@@]1(C3)NC(=O)NC1=O have Ki strictly under 80 nM?
Not satisfied

Does COc1ccc2c(c1)[C@]13CCN(CC4CC4)[C@H]([C@@H]2O)[C@@H]1CC[C@@]1(C3)NC(=O)NC1=O have Ki strictly under 80 nM?
Not satisfied

Does O=C1NC(=O)[C@@]2(CC[C@@]3(O)[C@H]4C(=O)c5ccc(O)cc5[C@@]3(CCN4CC3CC3)C2)N1 have Ki strictly under 80 nM?
Satisfied

Does O=C1NC(=O)[C@@]2(CC[C@@]3(O)[C@H]4C(=O)c5ccc(O)c6c5[C@@]3(CCN4CC3CC3)[C@H]2O6)N1 have Ki strictly under 80 nM?
Not satisfied
